Molecular target: Tie2 (Homo sapiens)
Construct: purchased Millipore (KinaseProfiler Service)
Sequence (Q02763 23-1124): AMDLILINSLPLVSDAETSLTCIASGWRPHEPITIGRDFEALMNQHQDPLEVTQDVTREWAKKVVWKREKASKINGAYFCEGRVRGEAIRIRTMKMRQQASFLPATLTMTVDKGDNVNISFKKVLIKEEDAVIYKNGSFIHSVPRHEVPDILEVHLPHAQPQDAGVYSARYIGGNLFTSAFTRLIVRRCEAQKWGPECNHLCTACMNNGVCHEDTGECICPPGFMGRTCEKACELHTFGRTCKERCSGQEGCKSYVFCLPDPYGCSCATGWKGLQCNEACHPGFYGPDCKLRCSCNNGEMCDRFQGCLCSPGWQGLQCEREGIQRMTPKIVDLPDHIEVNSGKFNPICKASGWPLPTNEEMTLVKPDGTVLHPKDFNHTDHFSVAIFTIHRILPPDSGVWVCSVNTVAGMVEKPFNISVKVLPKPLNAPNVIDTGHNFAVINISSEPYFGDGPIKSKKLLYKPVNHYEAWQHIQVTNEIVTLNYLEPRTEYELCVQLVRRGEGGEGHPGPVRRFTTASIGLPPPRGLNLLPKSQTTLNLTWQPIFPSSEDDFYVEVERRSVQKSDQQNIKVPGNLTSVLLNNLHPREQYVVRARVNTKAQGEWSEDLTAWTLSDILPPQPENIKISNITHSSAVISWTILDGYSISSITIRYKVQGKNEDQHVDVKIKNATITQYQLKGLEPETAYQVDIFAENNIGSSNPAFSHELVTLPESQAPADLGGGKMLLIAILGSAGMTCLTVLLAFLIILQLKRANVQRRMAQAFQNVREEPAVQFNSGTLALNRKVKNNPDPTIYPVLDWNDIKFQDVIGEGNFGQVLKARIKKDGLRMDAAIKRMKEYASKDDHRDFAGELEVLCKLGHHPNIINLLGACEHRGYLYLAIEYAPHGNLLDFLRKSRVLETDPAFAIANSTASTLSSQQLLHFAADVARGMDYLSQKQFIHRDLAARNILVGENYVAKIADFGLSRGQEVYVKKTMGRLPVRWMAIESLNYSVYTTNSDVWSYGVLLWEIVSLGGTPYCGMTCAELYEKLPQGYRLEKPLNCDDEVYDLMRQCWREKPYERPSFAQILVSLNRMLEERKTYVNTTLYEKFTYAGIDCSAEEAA
Experiment: KinaseProfiler kinase inhibition assay, Tie2
Format: biochemical
Conditions: 1 μM compound
Catalogue of inhibition at 1 µM readings, one per entry.

Example entries begin here.
Cc1cc2c(F)c(Oc3ncnc(Nc4ccc(N5CCN(C)CC5)cn4)c3Cl)ccc2[nH]1 [Compound 34]	18%
Cc1cc2c(F)c(Oc3cc(Nc4ccc(N5CCN(C)CC5)c(F)c4)ncn3)ccc2[nH]1 [Example 14]	31%
Cc1cc2c(F)c(Oc3ncnc(Nc4ccc(N5CCN(C)CC5)cn4)c3F)ccc2[nH]1 [Example 27]	-2%
CCN1CCN(c2ccc(Nc3ncnc(Oc4ccc5[nH]c(C)cc5c4F)c3C#N)cc2)CC1 [Compound 53]	5%
CCN1CCN(c2ccc(Nc3ncnc(Oc4ccc5[nH]c(C)cc5c4F)c3F)nc2)CC1 [Example 29]	33%

**Query** So what inhibition at 1 µM did Cc1cc2c(F)c(Oc3ncnc(Nc4ccc(N5CCNCC5)cc4)c3C#N)ccc2[nH]1 [Compound 57] get with Tie2 (Homo sapiens)?
**Result** 30%

**Query** So what inhibition at 1 µM did Cc1cc2c(F)c(Oc3cc(Nc4ccc(N5CCOCC5)cc4)ncn3)ccc2[nH]1 [Example 9] get with Tie2 (Homo sapiens)?
**Result** 24%

**Query** So what inhibition at 1 µM did Cc1cc2c(F)c(Oc3cc(Nc4cc(C5CC5)[nH]n4)ncn3)ccc2[nH]1 [Example 16] get with Tie2 (Homo sapiens)?
**Result** 75%

**Query** So what inhibition at 1 µM did CCN1CCN(c2ccc(Nc3ncnc(Oc4ccc5[nH]c(C)cc5c4F)c3F)cc2)CC1 [Example 25] get with Tie2 (Homo sapiens)?
**Result** 0%

**Query** So what inhibition at 1 µM did CCN1CCN(c2ccc(Nc3ncnc(Oc4ccc5[nH]c(C)cc5c4F)c3C(N)=O)cc2)CC1 [Compound 68] get with Tie2 (Homo sapiens)?
**Result** 94%

**Query** So what inhibition at 1 µM did CNC(=O)c1ccc(Nc2cc(Oc3ccc4[nH]c(C)cc4c3F)ncn2)cc1 [Example 12] get with Tie2 (Homo sapiens)?
**Result** 20%

**Query** So what inhibition at 1 µM did Cc1cc2c(F)c(Oc3ncnc(Nc4ccc(N5CCN(C)CC5)cn4)c3C)ccc2[nH]1 [Compound 41] get with Tie2 (Homo sapiens)?
**Result** 12%

**Query** So what inhibition at 1 µM did COc1ccc(-c2cc(Nc3cc(Oc4ccc5[nH]c(C)cc5c4F)ncn3)n[nH]2)cc1OC [Example 5] get with Tie2 (Homo sapiens)?
**Result** 45%

###

Tested on: Kato III
Experiment: CellTiterblue viability, 72 hr, Kato III
Assay type: cell-based
Details: Homo sapiens, Kato III cells
Catalogue of GI50 readings, one per entry.

Cc1cc2c(F)c(Oc3ncnc(Nc4ccc(N5CCN(C)CC5)cn4)c3F)ccc2[nH]1	> 500 nM

**Query** Requested field: GI50. Item: CCN1CCN(c2ccc(Nc3ncnc(Oc4ccc5[nH]c(C)cc5c4F)c3F)cc2)CC1
**Result** > 500 nM

**Query** Requested field: GI50. Item: COc1c(Nc2ccc(N3CCN(C)CC3)cn2)ncnc1Oc1ccc2[nH]c(C)cc2c1F
**Result** > 500 nM

**Query** Requested field: GI50. Item: CCN1CCN(c2ccc(Nc3ncnc(Oc4ccc5[nH]c(C)cc5c4F)c3F)nc2)CC1
**Result** > 500 nM

**Query** Requested field: GI50. Item: Cc1cc2c(F)c(Oc3cc(Nc4ccc(N5CCNCC5)cc4)ncn3)cc(F)c2[nH]1
**Result** 169 nM

**Query** Requested field: GI50. Item: CC(=O)N1CCN(c2ccc(Nc3ncnc(Oc4ccc5[nH]c(C)cc5c4F)c3F)cc2)CC1
**Result** > 500 nM

**Query** Requested field: GI50. Item: CCN1CCN(c2ccc(Nc3ncnc(Oc4ccc5[nH]c(C)cc5c4F)c3C#N)nc2)CC1
**Result** 319 nM

**Query** Requested field: GI50. Item: CCN1CCN(c2ccc(Nc3ncnc(Oc4cc(F)c5[nH]c(C)cc5c4F)c3C#N)nc2)CC1
**Result** 77 nM

**Query** Requested field: GI50. Item: COc1ccc(-c2cc(Nc3cc(Oc4ccc5[nH]c(C)cc5c4F)ncn3)n[nH]2)cc1OC
**Result** > 500 nM

**Query** Requested field: GI50. Item: Cc1cc2c(F)c(Oc3cc(Nc4ccc(N5CCN(C)CC5)cn4)ncn3)ccc2[nH]1
**Result** 290 nM

**Query** Requested field: GI50. Item: Cc1cc2c(F)c(Oc3ncnc(Nc4ccc(N5CCN(C)CC5)cc4)c3C)ccc2[nH]1
**Result** > 500 nM

**Query** Requested field: GI50. Item: CCN1CCN(c2ccc(Nc3ncnc(Oc4ccc5c(cc(C)n5C)c4F)c3C#N)cc2)CC1
**Result** > 500 nM
